# system_tested: human cyclin D1-CDK4 (Homo sapiens)
# Sequence (P11802 whole entry): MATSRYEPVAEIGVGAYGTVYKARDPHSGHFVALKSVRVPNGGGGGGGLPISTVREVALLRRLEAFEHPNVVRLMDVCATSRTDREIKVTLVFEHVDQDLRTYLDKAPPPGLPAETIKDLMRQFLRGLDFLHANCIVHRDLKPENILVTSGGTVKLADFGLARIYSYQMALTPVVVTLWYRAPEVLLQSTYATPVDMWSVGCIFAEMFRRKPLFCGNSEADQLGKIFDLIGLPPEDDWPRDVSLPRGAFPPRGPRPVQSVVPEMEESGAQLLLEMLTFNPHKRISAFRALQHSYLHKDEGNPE
# Sequence (P24385 whole entry partner): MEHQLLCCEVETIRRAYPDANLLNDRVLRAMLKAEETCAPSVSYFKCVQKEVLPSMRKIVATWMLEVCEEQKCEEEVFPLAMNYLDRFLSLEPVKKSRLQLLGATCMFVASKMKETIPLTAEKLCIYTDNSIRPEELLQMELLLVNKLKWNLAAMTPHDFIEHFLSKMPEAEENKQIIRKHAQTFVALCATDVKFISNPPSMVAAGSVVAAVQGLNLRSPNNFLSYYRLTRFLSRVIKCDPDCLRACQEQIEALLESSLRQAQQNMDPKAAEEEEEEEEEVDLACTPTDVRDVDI
# measurement_notes: CDK4 HTRF kinase assay (Ki measurement)
# applied_conditions: Rb substrate, ATP at 3x Km, Ki=IC50/(1+S/Km)
Would you kindly list Ki for each of these molecules?
Reply with the number, then its unit.

CS(=O)(=O)N1CCC(Nc2nc(N)c(C(=O)c3c(F)cccc3F)s2)CC1 : 6 nM

q: Send back human cyclin D1-CDK4 (Homo sapiens) Ki of COc1ccc(F)c(F)c1C(=O)c1sc(NC2CCN(S(C)(=O)=O)CC2)nc1N only.
a: 2 nM

Data provenance is patent US7423053B2.
